The measurements presented in this section are drawn from patent US20140135310A1.

- Test target: 5-HT1A receptor (rat hippocampus) (Rattus norvegicus)
- Construct: hippocampus; from tissue; host or cells: rat hippocampus
- Sequence (P19327 whole entry): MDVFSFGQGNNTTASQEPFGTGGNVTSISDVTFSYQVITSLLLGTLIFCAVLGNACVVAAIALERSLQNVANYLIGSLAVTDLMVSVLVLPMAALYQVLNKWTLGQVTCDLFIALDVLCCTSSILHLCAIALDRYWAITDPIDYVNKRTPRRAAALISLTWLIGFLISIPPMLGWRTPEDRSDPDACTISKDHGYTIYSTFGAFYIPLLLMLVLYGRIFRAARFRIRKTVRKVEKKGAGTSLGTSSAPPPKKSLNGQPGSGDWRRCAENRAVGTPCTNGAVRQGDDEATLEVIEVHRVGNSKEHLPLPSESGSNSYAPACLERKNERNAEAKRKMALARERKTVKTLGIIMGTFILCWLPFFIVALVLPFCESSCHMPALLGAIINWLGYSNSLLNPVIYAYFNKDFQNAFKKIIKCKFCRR
- Assay notes: Radioligand binding assay, serotoninergic 5-HT1A receptors;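 note: test compound at 1 µM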
- Cond: binding assay result in %, Table 5a
Measured parameter: inhibition at 1 µM
Please don't drop the unit; write it after the number.

Example entries and their recorded answers appear below.
[[record]]
molecule = "Cc1cc(S(=O)(=O)NCC2CCN(CCCc3noc4cc(F)ccc34)C2)c(C)s1 (stereo not drawn)"
measured_parameter = "inhibition at 1 µM"
result = "25%"

[[record]]
molecule = "CCCc1ccc(S(=O)(=O)NCC2CN(CCCc3noc4cc(F)ccc34)C2)cc1"
measured_parameter = "inhibition at 1 µM"
result = "61%"

[[record]]
molecule = "O=S(=O)(NC1CCN(CCCc2c[nH]c3ccc(Cl)cc23)C1)c1ccc2ccccc2c1 (stereo not drawn)"
measured_parameter = "inhibition at 1 µM"
result = "105%"

[[record]]
molecule = "O=S(=O)(NCC1CN(CCOc2cccc3c2OCCO3)C1)c1ccsc1"
measured_parameter = "inhibition at 1 µM"
result = "98%"

[[record]]
molecule = "O=S(=O)(NC1CCN(CCCc2c[nH]c3ccc(F)cc23)C1)c1ccc2ccccc2c1 (stereo not drawn)"
measured_parameter = "inhibition at 1 µM"
result = "98%"


Value sought for every listed molecule: inhibition at 1 µM.
1. O=S(=O)(NCC1CCN(CCOc2cccc3c2OCCO3)C1)c1ccc2scnc2c1 (stereo not drawn)
2. O=S(=O)(NCC1CN(CCOc2cccc3c2OCCO3)C1)c1ccc(Br)cc1
3. O=S(=O)(NCC1CN(CCOc2cccc3c2OCCO3)C1)c1ccc(Cl)s1
4. O=S(=O)(NC1CCN(CCCc2noc3cc(F)ccc23)C1)c1cccc(O)c1 (stereo not drawn)
5. O=S(=O)(NCC1CCN(CCOc2cccc3c2OCCO3)C1)c1ccc(F)c(Cl)c1 (stereo not drawn)
6. Cc1c(S(=O)(=O)N[C@H]2CCN(CCCc3noc4cc(F)ccc34)C2)sc2ccc(F)cc12

Result:
1. 62%
2. 88%
3. 79%
4. 18%
5. 100%
6. 60%

Value sought for every listed molecule: inhibition at 1 µM.
1. Cc1c(S(=O)(=O)NC2CCN(CCCc3noc4cc(F)ccc34)C2)sc2ccc(Cl)cc12 (stereo not drawn)
2. O=S(=O)(NC1CCN(CCOc2cccc3ccccc23)C1)c1ccc2ccccc2c1 (stereo not drawn)
3. O=S(=O)(NC1CCN(CCCc2c[nH]c3ccc(F)cc23)C1)c1cccc2ccccc12 (stereo not drawn)

Result:
1: 70%; 2: 99%; 3: 99%

Value sought for every listed molecule: inhibition at 1 µM.
1. Cc1c(S(=O)(=O)NCC2CCN(CCCc3noc4cc(F)ccc34)C2)sc2ccc(Cl)cc12 (stereo not drawn)
2. O=S(=O)(NCC1CN(CCOc2cccc3c2OCCO3)C1)c1ccc2cc(Cl)ccc2c1

Result:
1. 71%
2. 91%

Value sought for every listed molecule: inhibition at 1 µM.
1. O=S(=O)(NCC1CN(CCOc2cccc3c2OCCO3)C1)c1ccc(F)cc1
2. Cn1ccc2cc(S(=O)(=O)NCC3CN(CCCc4noc5cc(F)ccc45)C3)ccc21

Result:
1: 63%; 2: -9%

Value sought for every listed molecule: inhibition at 1 µM.
1. Cn1ccc2cc(S(=O)(=O)NCC3CCN(CCOc4cccc5c4OCCO5)C3)ccc21 (stereo not drawn)
2. Cc1c(S(=O)(=O)NCC2CCN(CCOc3cccc4ccccc34)C2)sc2ccc(Cl)cc12 (stereo not drawn)
3. O=S(=O)(NC1CCN(CCCc2noc3cc(F)ccc23)C1)c1cnc2ccccn12 (stereo not drawn)
4. O=S(=O)(NCC1CCN(CCOc2nsc3ccccc23)C1)c1cccc(O)c1 (stereo not drawn)

Result:
98%
63%
5%
83%

Value sought for every listed molecule: inhibition at 1 µM.
1. O=S(=O)(NC1CCN(CCCc2noc3cc(F)ccc23)CC1)c1ccc2cc(Cl)ccc2c1
2. O=S(=O)(NCC1CCN(CCCc2noc3cc(F)ccc23)C1)c1ccc(-c2ccccc2)cc1 (stereo not drawn)
3. O=S(=O)(NCC1CN(CCOc2cccc3ccccc23)C1)c1cccc2ccccc12
4. O=S(=O)(NCC1CN(CCCc2noc3cc(F)ccc23)C1)c1cc2ccccc2s1
5. O=S(=O)(NCC1CN(CCOc2cccc3c2OCCO3)C1)c1csc2ccccc12

Result:
80%
39%
79%
55%
100%

Value sought for every listed molecule: inhibition at 1 µM.
1. Cc1c(S(=O)(=O)NCC2CCN(CCOc3cccc4ccccc34)C2)sc2ccc(F)cc12 (stereo not drawn)
2. O=S(=O)(NCC1CN(CCCc2noc3cc(F)ccc23)C1)c1ccc2ccccc2c1
3. O=S(=O)(NCC1CN(CCCc2noc3cc(F)ccc23)C1)c1cccc(O)c1
4. O=S(=O)(NCC1CCN(CCCc2noc3cc(F)ccc23)C1)c1ccccc1 (stereo not drawn)
5. O=S(=O)(NCC1CN(CCCc2noc3cc(F)ccc23)C1)c1ccc2scnc2c1
6. O=S(=O)(NC1CCN(CCCc2c[nH]c3ccc(F)cc23)C1)c1ccc(F)cc1 (stereo not drawn)

Result:
1. 82%
2. 73%
3. 82%
4. 35%
5. 57%
6. 100%

###

- Test target: dopaminergic receptors D3 (Homo sapiens)
- Sequence (P35462 whole entry): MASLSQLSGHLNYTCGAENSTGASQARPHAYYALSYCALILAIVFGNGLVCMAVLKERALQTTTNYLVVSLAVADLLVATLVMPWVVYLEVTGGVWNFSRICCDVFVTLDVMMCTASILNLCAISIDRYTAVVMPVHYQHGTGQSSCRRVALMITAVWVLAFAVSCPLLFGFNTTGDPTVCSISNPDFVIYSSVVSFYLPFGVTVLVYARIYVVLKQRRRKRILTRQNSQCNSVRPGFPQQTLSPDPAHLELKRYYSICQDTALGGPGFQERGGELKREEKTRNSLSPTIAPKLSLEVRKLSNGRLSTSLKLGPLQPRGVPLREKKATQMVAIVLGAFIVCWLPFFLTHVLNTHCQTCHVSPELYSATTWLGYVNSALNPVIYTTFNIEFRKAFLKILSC
- Assay notes: Radioligand binding assay, dopaminergic D3 receptors
- Cond: test compound 1×10^−6 M
Record 1 whenever D3 [%] is at 80% or higher; record 0 when lower.

# example entries with known answers
[[record]]
compound = "Cc1cccc(S(=O)(=O)NC2CN(CCOc3cccc4c3OCCO4)C2)c1"
answer_label = 0

[[record]]
compound = "O=S(=O)(NCC1CCN(CCOc2ccc3cc[nH]c3c2)CC1)c1cccc2ccccc12"
answer_label = 0

[[record]]
compound = "Cc1cccc(S(=O)(=O)NC2CCN(CCCc3noc4cc(F)ccc34)CC2)c1"
answer_label = 0

[[record]]
compound = "Cc1cccc(S(=O)(=O)NC2CCN(CCOc3cccc4[nH]ccc34)CC2)c1"
answer_label = 1

[[record]]
compound = "O=S(=O)(NC1CCN(CCOc2cccc3[nH]ccc23)CC1)c1cccc2ccccc12"
answer_label = 1


Q: Please check the record CC1(C)Cc2cccc(OCCN3CCC(NS(=O)(=O)c4ccc5ccccc5c4)CC3)c2O1 and state if its D3 [%] is at or above 80%.
Result: 0

Q: Please check the record O=S(=O)(NC1CN(CCOc2cccc3c2OCCO3)C1)c1cccc(Cl)c1 and state if its D3 [%] is at or above 80%.
Result: 0

Q: Please check the record CC1(C)Cc2cccc(OCCN3CCC(NS(=O)(=O)c4cccc(O)c4)CC3)c2O1 and state if its D3 [%] is at or above 80%.
Result: 1

Q: Please check the record O=S(=O)(NC1CN(CCOc2cccc3c2OCCO3)C1)c1ccc2ccccc2c1 and state if its D3 [%] is at or above 80%.
Result: 0

Q: Please check the record O=S(=O)(NC1CCN(CCOc2cccc3c2OCCO3)CC1)c1ccccc1 and state if its D3 [%] is at or above 80%.
Result: 0

Q: Please check the record O=S(=O)(NCC1CCN(CCOc2cccc3[nH]ccc23)CC1)c1ccc2ccccc2c1 and state if its D3 [%] is at or above 80%.
Result: 1

Q: Please check the record O=S(=O)(NC1CN(CCOc2cccc3c2OCCO3)C1)c1ccc(F)cc1 and state if its D3 [%] is at or above 80%.
Result: 0

###

- Test system: σ receptors
- Assay notes: Radioligand binding assay, σ receptors
- Cond: rat cerebral cortex, [3H]DTG 8 nM
Measured parameter: σ [%] (%)
Give bare numbers, in %.

Example entries and their recorded answers appear below.
[[record]]
compound = "Cn1ccc2cc(S(=O)(=O)NCC3CCN(CCOc4cccc5c4OCCO5)C3)ccc21 (stereo not shown) [Compound 308]"
measured_parameter = "σ [%]"
quantitative_result = 91

[[record]]
compound = "O=S(=O)(N[C@@H]1CCN(CCCc2noc3cc(F)ccc23)C1)c1cc2ccc(Cl)cc2s1 [Compound 198]"
measured_parameter = "σ [%]"
quantitative_result = 86

[[record]]
compound = "O=S(=O)(NCC1CCN(CCCc2noc3cc(F)ccc23)C1)c1ccc(-c2ccccc2)cc1 (stereo not shown) [Compound 241]"
measured_parameter = "σ [%]"
quantitative_result = 88


--- query ---
Kindly note: σ receptors, Cc1cc(S(=O)(=O)N[C@H]2CCN(CCCc3noc4cc(F)ccc34)C2)c(C)s1 [Compound 223] , σ [%] value reported: 89

###

- Test target: H1 histaminergic receptors (Homo sapiens, UniProt P35367)
- Construct: expressed in transfected cells; host or cells: HEK-293 cells
- Sequence (P35367 whole entry): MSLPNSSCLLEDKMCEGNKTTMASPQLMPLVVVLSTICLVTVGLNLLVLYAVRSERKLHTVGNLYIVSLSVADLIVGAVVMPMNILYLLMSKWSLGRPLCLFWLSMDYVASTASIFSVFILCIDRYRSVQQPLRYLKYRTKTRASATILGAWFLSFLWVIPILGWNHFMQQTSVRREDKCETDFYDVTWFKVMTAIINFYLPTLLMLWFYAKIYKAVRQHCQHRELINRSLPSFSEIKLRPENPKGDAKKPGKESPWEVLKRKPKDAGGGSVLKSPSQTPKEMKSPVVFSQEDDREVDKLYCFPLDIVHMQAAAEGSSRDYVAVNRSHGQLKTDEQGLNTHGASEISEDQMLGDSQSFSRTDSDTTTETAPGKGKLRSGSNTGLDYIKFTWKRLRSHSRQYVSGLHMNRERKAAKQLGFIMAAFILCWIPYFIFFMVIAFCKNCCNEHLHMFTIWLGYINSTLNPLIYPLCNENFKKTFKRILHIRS
- Assay notes: Radioligand binding assay, histaminergic H1 receptors
- Cond: human recombinant (HEK-293 cells), [3H]pyrilamine 1 nM
Measured parameter: inhibition at 1 µM (%)
One number for each entry, in %.

Example entries and their recorded answers appear below.
[[record]]
molecule = "O=S(=O)(N[C@H]1CCN(CCCc2noc3cc(F)ccc23)C1)c1ccc2ccccc2c1 [Compound 207]"
quantitative_result = 65

[[record]]
molecule = "O=S(=O)(NC1CCN(CCCc2noc3cc(F)ccc23)C1)c1cc2ccc(F)cc2s1 (stereo not shown) [Compound 234]"
quantitative_result = 75

[[record]]
molecule = "Cc1c(S(=O)(=O)N[C@H]2CCN(CCCc3noc4cc(F)ccc34)C2)sc2ccc(F)cc12 [Compound 203]"
quantitative_result = 67

[[record]]
molecule = "O=S(=O)(NC1CCN(CCCc2noc3cc(F)ccc23)C1)c1cc2ccccc2s1 (stereo not shown) [Compound 25]"
quantitative_result = 75

[[record]]
molecule = "Cc1c(S(=O)(=O)N[C@H]2CCN(CCCc3noc4cc(F)ccc34)C2)sc2ccc(Cl)cc12 [Compound 205]"
quantitative_result = 50

[[record]]
molecule = "O=S(=O)(NC1CCN(CCCc2noc3cc(F)ccc23)C1)c1cccc2ccccc12 (stereo not shown) [Compound 20]"
quantitative_result = 36

[[record]]
molecule = "COc1ccc2cc(S(=O)(=O)N[C@@H]3CCN(CCCc4noc5cc(F)ccc45)C3)ccc2c1 [Compound 230]"
quantitative_result = 71

[[record]]
molecule = "Cc1c(S(=O)(=O)NCC2CCN(CCCc3noc4cc(F)ccc34)C2)sc2ccc(Cl)cc12 (stereo not shown) [Compound 238]"
quantitative_result = 65


Value sought for every listed molecule: inhibition at 1 µM.
1. O=S(=O)(NCC1CCN(CCOc2cccc3c2OCCO3)C1)c1cccc(O)c1 (stereo not shown) [Compound 303]
2. O=S(=O)(NCC1CCN(CCOc2cccc3c2OCCO3)C1)c1ccc(F)cc1 (stereo not shown) [Compound 300]
3. Cn1ccc2cc(S(=O)(=O)NC3CCN(CCCc4noc5cc(F)ccc45)C3)ccc21 (stereo not shown) [Compound 218]
4. O=S(=O)(N[C@@H]1CCN(CCCc2noc3cc(F)ccc23)C1)c1csc2ccccc12 [Compound 224]
5. O=S(=O)(NCC1CN(CCCc2noc3cc(F)ccc23)C1)c1cc2ccccc2s1 [Compound 127]
6. O=S(=O)(NCC1CCN(CCCc2noc3cc(F)ccc23)C1)c1ccc(-c2ccccc2)cc1 (stereo not shown) [Compound 241]
7. O=S(=O)(NCC1CCN(CCOc2cccc3c2OCCO3)C1)c1ccc(C(F)(F)F)cc1 (stereo not shown) [Compound 293]

Result:
1. 68
2. 28
3. 77
4. 60
5. 54
6. 69
7. 38

According to the records, this molecule O=S(=O)(NC1CCN(CCCc2c[nH]c3ccc(F)cc23)C1)c1ccc(Cl)cc1 (stereo not shown) [Compound 77] displays inhibition at 1 µM of 54
